assayRemarks: Metabolic stability in rat liver microsomes assessed as intrinsic clearance at 3 uM measured up to 45 mins in presence of NADPH by LC-MS/MS analysis
Assay type: ADME, Microsome
conditionDescription: read-out: CLH
measuredEndpoint: microsomal CLint at 3 µM (µL/min/mg)
Write it as a number; the unit µL/min/mg goes unstated.

Return reported microsomal CLint at 3 µM; argument: COC(=O)c1cc(OC[C@@H](COS(=O)(=O)[O-])OS(=O)(=O)[O-])ccc1OC[C@H](COS(=O)(=O)[O-])OS(=O)(=O)[O-].[Na+].[Na+].[Na+].[Na+]
9.56

Try the compound COC(=O)c1cc(OC[C@H](COS(=O)(=O)[O-])OS(=O)(=O)[O-])ccc1OC[C@@H](COS(=O)(=O)[O-])OS(=O)(=O)[O-].[Na+].[Na+].[Na+].[Na+]
0.649

* * *

The molecules listed here are annotated with their inhibition (INH).
Test system: HepG2
assayRemarks: Antioxidant activity in human HepG2 cells assessed as decrease in FFA-induced ROS production after 24 hrs by ethidium/DAPI based fluorescence assay relative to control
Format: functional
Write it as a number; the unit % goes unstated.

| molecule | measuredEndpoint | measuredNumber |
| --- | --- | --- |
| COC(=O)c1cc(OC[C@H](COS(=O)(=O)[O-])OS(=O)(=O)[O-])ccc1OC[C@@H](COS(=O)(=O)[O-])OS(=O)(=O)[O-].[Na+].[Na+].[Na+].[Na+] | inhibition (INH) | 29 |

Return reported inhibition (INH); argument: COC(=O)c1cc(OC[C@@H](COS(=O)(=O)[O-])OS(=O)(=O)[O-])ccc1OC[C@H](COS(=O)(=O)[O-])OS(=O)(=O)[O-].[Na+].[Na+].[Na+].[Na+]
28

Try the molecule O=C([O-])c1cc(OC[C@H](O)CO)ccc1OC[C@@H](O)CO.[Na+] (mixture of isomers)
23

Try the molecule COC(=O)c1cc(OC[C@H](O)CO)ccc1OC[C@@H](O)CO (mixture of isomers)
36

Try the molecule COC(=O)c1cc(OC[C@@H](COS(=O)(=O)[O-])OS(=O)(=O)[O-])ccc1OCCCCOS(=O)(=O)[O-].[Na+].[Na+].[Na+]
39

Try the molecule COC(=O)c1cc(OC[C@H](COS(=O)(=O)[O-])OS(=O)(=O)[O-])ccc1OCCCCOS(=O)(=O)[O-].[Na+].[Na+].[Na+]
23

Try the molecule O=C([O-])c1cc(OC[C@@H](O)CO)ccc1OC[C@H](O)CO.[Na+] (mixture of isomers)
19

* * *

assayRemarks: Metabolic stability in rat liver microsomes assessed as half life at 3 uM measured up to 45 mins in presence of NADPH by LC-MS/MS analysis
Type: ADME, Microsome
measuredEndpoint: half-life at 3 µM (h)
Write it as a number; the unit h goes unstated.

| compoundString | half-life at 3 µM, h |
| --- | --- |
| COC(=O)c1cc(OC[C@H](COS(=O)(=O)[O-])OS(=O)(=O)[O-])ccc1OC[C@@H](COS(=O)(=O)[O-])OS(=O)(=O)[O-].[Na+].[Na+].[Na+].[Na+] | 35.7 |

Could you now consider this next molecule?
Return reported half-life at 3 µM; argument: COC(=O)c1cc(OC[C@@H](COS(=O)(=O)[O-])OS(=O)(=O)[O-])ccc1OC[C@H](COS(=O)(=O)[O-])OS(=O)(=O)[O-].[Na+].[Na+].[Na+].[Na+]
2.42
